- TARGET ENTITY: human MC3R (human, UniProt P41968 1-323)
- Sequence (P41968 whole entry): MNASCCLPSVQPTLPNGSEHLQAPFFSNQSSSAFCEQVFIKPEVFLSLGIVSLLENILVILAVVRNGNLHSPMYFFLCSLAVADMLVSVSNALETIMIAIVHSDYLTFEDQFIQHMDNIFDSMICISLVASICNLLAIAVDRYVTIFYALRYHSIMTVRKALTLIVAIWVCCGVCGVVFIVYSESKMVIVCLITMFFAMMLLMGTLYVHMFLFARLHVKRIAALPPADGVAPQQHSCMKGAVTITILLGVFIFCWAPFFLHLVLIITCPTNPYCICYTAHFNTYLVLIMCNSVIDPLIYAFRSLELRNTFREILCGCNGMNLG
- PROTOCOL SUMMARY: cell-based or functional assay
Positions of bridges follow the written chain, without caps; N, C: chain ends. Non-standard residues stand in square brackets, D forms with d. Cit = NC(=O)NCCC[C@H](N)C(=O)O; Nle = CCCC[C@H](N)C(=O)O; Aib = CC(C)(N)C(=O)O
If the reported % max activation equals or exceeds 40%, assign 1. If not, assign 0.

{"BINDER": "Ac-RC[dA][Cit][dF]RWC-NH2 (disulfide 2-8) [CTX-1285]", "CLASS LABEL": 0}
{"BINDER": "Ac-RC[Aib]R[dF]RWC-NH2 (disulfide 2-8) [CTX-1292]", "CLASS LABEL": 1}
{"BINDER": "Ac-R[Nle]C[Cit][dF]R[dW]C-NH2 (disulfide 3-8; SMILES CCCC[C@H](NC(=O)[C@H](CCCNC(=N)N)NC(C)=O)C(=O)N[C@H]1CSSC[C@@H](C(N)=O)NC(=O)[C@@H](Cc2c[nH]c3ccccc23)NC(=O)[C@H](CCCNC(=N)N)NC(=O)[C@@H](Cc2ccccc2)NC(=O)[C@H](CCCNC(N)=O)NC1=O) [CTX-1608]", "CLASS LABEL": 0}
{"BINDER": "Ac-RC[dA]R[dF][Cit][dW]C-NH2 (disulfide 2-8) [CTX-1281]", "CLASS LABEL": 1}
